Task for the reader: assign each of the following compounds its reported Bliss excess.
- Tested on: CAL-72 (Osteosarcoma)
- test: Bliss excess, mean over the matrix (fraction); higher = more synergy;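 further: after 72 h of two-drug dosing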

// worked examples, Bliss excess included
C[C@@H](Oc1cc(-c2cnn(C3CCNCC3)c2)cnc1N)c1c(Cl)ccc(F)c1Cl [Crizotinib] + Cn1cnc2c(F)c(Nc3ccc(Br)cc3Cl)c(C(=O)NOCCO)cc21 [Selumetinib] (first compound max 10 µM, 7x7, partner max 10 µM) = -0.0411
COc1nnc2ccc(N3CCC(c4ccc(OCCN5CCN(C)C(=O)[C@H]5C)cc4)CC3)nn12 [AZD5153] + Cn1cnc2c(F)c(Nc3ccc(Br)cc3Cl)c(C(=O)NOCCO)cc21 [Selumetinib] (first compound max 1 µM, 7x7, partner max 10 µM) = -0.0414

Next up:
Q. Name the value of Bliss excess reported for CC1(C)CCC(CN2CCN(c3ccc(C(=O)NS(=O)(=O)c4ccc(NCC5CCOCC5)c([N+](=O)[O-])c4)c(Oc4cnc5[nH]ccc5c4)c3)CC2)=C(c2ccc(Cl)cc2)C1 [Venetoclax] + CS(=O)(=O)CCNCc1ccc(-c2ccc3ncnc(Nc4ccc(OCc5cccc(F)c5)c(Cl)c4)c3c2)o1 [Lapatinib] (first compound max 1 µM, 7x7, partner max 10 µM) when tested on CAL-72 (Osteosarcoma).
A. -0.0527

* * *

Could you please report measured Bliss excess for the items listed next?
- System: SW1573 (Lung Adenocarcinoma)
- test: Bliss excess, mean over the matrix (fraction); higher = more synergy
Numbers only.

// below: answered compounds
Cc1cc2ncnn2cc1Nc1ncc2c(n1)n(C1CCOCC1)c(=O)n2C [AZD7648] + C=CCn1c(=O)c2cnc(Nc3ccc(N4CCN(C)CC4)cc3)nc2n1-c1cccc(C(C)(C)O)n1 [AZD1775] (first compound max 10 µM, partner max 1 µM) = -0.0452
CCN(CCO)CCCOc1ccc2c(Nc3cc(CC(=O)Nc4cccc(F)c4)[nH]n3)ncnc2c1 [AZD2811] + C=CCn1c(=O)c2cnc(Nc3ccc(N4CCN(C)CC4)cc3)nc2n1-c1cccc(C(C)(C)O)n1 [AZD1775] (first compound max 1 µM, partner max 1 µM) = 0.0297
COc1cccc2c1C(=O)c1c(O)c3c(c(O)c1C2=O)C[C@@](O)(C(=O)CO)C[C@@H]3O[C@H]1C[C@H](N)[C@H](O)[C@H](C)O1 [Doxorubicin] + Cc1cc2ncnn2cc1Nc1ncc2c(n1)n(C1CCOCC1)c(=O)n2C [AZD7648] (first compound max 1 µM, 7x7, partner max 10 µM) = -0.0042
CN(C)CCCOc1ccc(-c2ccc3ncc4c(c3c2)n(C2CCOCC2)c(=O)n4C)cn1 [AZD0156] + C=CCn1c(=O)c2cnc(Nc3ccc(N4CCN(C)CC4)cc3)nc2n1-c1cccc(C(C)(C)O)n1 [AZD1775] (first compound max 1 µM, partner max 1 µM) = -0.0423
Cn1cnc2c(F)c(Nc3ccc(Br)cc3Cl)c(C(=O)NOCCO)cc21 [Selumetinib] + C=CCn1c(=O)c2cnc(Nc3ccc(N4CCN(C)CC4)cc3)nc2n1-c1cccc(C(C)(C)O)n1 [AZD1775] (first compound max 10 µM, partner max 1 µM) = -0.0582

Hey, quick one: what's Bliss excess for each of these?
1. CC(=O)Nc1cccc(-n2c(=O)n(C3CC3)c(=O)c3c(Nc4ccc(I)cc4F)n(C)c(=O)c(C)c32)c1 [Trametinib] + Cc1nc(-c2cn3c(n2)-c2ccc(-c4cnn(C(C)(C)C(N)=O)c4)cc2OCC3)n(C(C)C)n1 [Taselisib] (first compound max 1 µM, 7x7, partner max 10 µM)
2. COc1cccc(OCCCN)c1-c1cc(Nc2cnc(C#N)cn2)n[nH]1 [Prexasertib] + CCc1c2c(nc3ccc(O)cc13)-c1cc3c(c(=O)n1C2)COC(=O)[C@]3(O)CC [SN-38] (first compound max 1 µM, 7x7, partner max 0.3 µM)

A.
1. 0.0334
2. -0.0144

The measured values listed here are drawn from the supplement of paper PMC11061612.
